The reader will find reported pIC50 values listed item by item below.
- Method Description: Inhibition of Hepatitis C virus full-length NS3/4A protease assessed as quenched-fluorogenic RET-S1 substrate cleavage incubated for 10 mins prior to substrate addition by FRET analysis
- Set-up: species or system Hepacivirus hominis
pIC50: −log10 of the molar value. *1 amine or outer side, *2 acyl side, *3 side chain or, on linkers, in order; H or OH if unused. Where a SMILES comes first, the peptide text is derived from it. Side-chain parts run from the residue outwards. [ ]: non-standard residue; d: D form. The star is where a group is joined. Ac3c(1R,2S-2-vinyl) = C=C[C@@H]1C[C@]1(N)C(=O)O; Hyp = O=C(O)[C@@H]1C[C@@H](O)CN1; Chg = N[C@H](C(=O)O)C1CCCCC1; X5 = c1ccc2c(c1)CN(*)C2; CO = O=C([*:1])[*:2]

[
  {
    "Compound": "C=C[C@@H]1C[C@]1(NC(=O)[C@@H]1C[C@@H](OC(=O)N2Cc3ccccc3C2)CN1C(=O)[C@@H](NC(=O)[C@@H](NC(C)=O)C1CCCCC1)C(C)C)C(=O)O (Ac-[Chg]V[Hyp]([CO-X5])[Ac3c(1R,2S-2-vinyl)]-OH)",
    "Censor Symbol": "=",
    "pIC50": 6.73
  },
  {
    "Compound": "CC(C)(C)OC(=O)N[C@H]1CCCCC/C=C\\[C@@H]2C[C@@]2(C(=O)O)NC(=O)[C@@H]2C[C@@H](O)CN2C1=O",
    "Censor Symbol": "<",
    "pIC50": 4.30
  },
  {
    "Compound": "CC(C)(C)OC(=O)N[C@H]1CCCCC/C=C\\[C@@H]2C[C@@]2(C(=O)NS(=O)(=O)C2CC2)NC(=O)[C@@H]2C[C@@H](OC(=O)N3Cc4ccc(C(F)(F)F)cc4C3)CN2C1=O",
    "Censor Symbol": "=",
    "pIC50": 7.68
  },
  {
    "Compound": "CC(C)(C)OC(=O)N[C@H]1CCCCC/C=C\\[C@@H]2C[C@@]2(C(=O)NS(=O)(=O)C2CC2)NC(=O)[C@@H]2C[C@@H](OC(=O)N3Cc4cccc(N)c4C3)CN2C1=O",
    "Censor Symbol": "=",
    "pIC50": 9.70
  },
  {
    "Compound": "CC(C)(C)OC(=O)N[C@H]1CCCCC/C=C\\[C@@H]2C[C@@]2(C(=O)NS(=O)(=O)Nc2ccc(Cl)cc2)NC(=O)[C@@H]2C[C@@H](OC(=O)N3Cc4ccccc4C3)CN2C1=O",
    "Censor Symbol": "=",
    "pIC50": 8.10
  }
]

* * *

The reader will find reported IC50 values listed item by item below.
- Method Description: Inhibition of Hepatitis C virus full-length NS3/4A protease assessed as quenched-fluorogenic RET-S1 substrate cleavage incubated for 10 mins prior to substrate addition by FRET analysis
- Set-up: species or system Hepacivirus hominis

[
  {
    "Structure": "CC(C)(C)OC(=O)N[C@H]1CCCCC/C=C\\[C@@H]2C[C@@]2(C(=O)NS(=O)(=O)C2CC2)NC(=O)[C@@H]2C[C@@H](OC(=O)N3Cc4cc(Cl)c(Cl)cc4C3)CN2C1=O",
    "IC50, nM": 1
  },
  {
    "Structure": "CC(C)(C)OC(=O)N[C@H]1CCCCC/C=C\\[C@@H]2C[C@@]2(C(=O)NS(=O)(=O)C2CC2)NC(=O)[C@@H]2C[C@@H](NC(=S)N3CCc4ccccc4C3)CN2C1=O",
    "IC50, nM": 8.2
  },
  {
    "Structure": "O=C(N[C@H]1CCCCC/C=C\\[C@@H]2C[C@@]2(C(=O)NS(=O)(=O)C2CC2)NC(=O)[C@@H]2C[C@@H](OC(=O)N3Cc4ccccc4C3)CN2C1=O)OC1CCCC1",
    "IC50, nM": 1
  }
]

* * *

- Method Description: Inhibition of Hepatitis C virus full-length NS3/4A protease assessed as quenched-fluorogenic RET-S1 substrate cleavage incubated for 10 mins prior to substrate addition by FRET analysis
- Design: species or system Hepacivirus hominis
pIC50: −log10 of the molar value. *1 amine or outer side, *2 acyl side, *3 side chain or, on linkers, in order; H or OH if unused. Where a SMILES comes first, the peptide text is derived from it. Side-chain parts run from the residue outwards. [ ]: non-standard residue; d: D form. The star is where a group is joined. Ac3c(1R,2S-2-vinyl) = C=C[C@@H]1C[C@]1(N)C(=O)O; NH(1-naphthylmethyl) = c1ccc2c(CN*)cccc2c1; Hyp = O=C(O)[C@@H]1C[C@@H](O)CN1; Chg = N[C@H](C(=O)O)C1CCCCC1; Piperidide = C1CCN(*)CC1; CO = O=C([*:1])[*:2]

[
  {
    "Compound": "CC(C)(C)OC(=O)N[C@H]1CCCCC/C=C\\[C@@H]2C[C@@]2(C(=O)NS(=O)(=O)c2cc(Cl)sc2Cl)NC(=O)[C@@H]2C[C@@H](OC(=O)N3Cc4ccccc4C3)CN2C1=O",
    "pIC50": 9.30
  },
  {
    "Compound": "C=C[C@@H]1C[C@]1(NC(=O)[C@@H]1C[C@@H](OC(=O)NCc2cccc3ccccc23)CN1C(=O)[C@@H](NC(=O)[C@@H](NC(C)=O)C1CCCCC1)C(C)C)C(=O)O (Ac-[Chg]V[Hyp]([CO-NH(1-naphthylmethyl)])[Ac3c(1R,2S-2-vinyl)]-OH)",
    "pIC50": 6.08
  },
  {
    "Compound": "CC(C)(C)OC(=O)N[C@H]1CCCCC/C=C\\[C@@H]2C[C@@]2(C(=O)NS(=O)(=O)C2CC2)NC(=O)[C@@H]2C[C@@H](OC(=O)N3Cc4ccccc4C(O)C3)CN2C1=O (stereo not given in full)",
    "pIC50": 8.66
  },
  {
    "Compound": "CC(C)(C)OC(=O)N[C@H]1CCCCC/C=C\\[C@@H]2C[C@@]2(C(=O)NS(=O)(=O)c2ccccc2)NC(=O)[C@@H]2C[C@@H](OC(=O)N3Cc4ccccc4C3)CN2C1=O",
    "pIC50": 8.46
  },
  {
    "Compound": "CC(C)(C)OC(=O)N[C@H]1CCCCC/C=C\\[C@@H]2C[C@@]2(C(=O)NS(=O)(=O)C2CC2)NC(=O)[C@@H]2C[C@@H](OC(=O)N3Cc4cccc(N5CCOCC5)c4C3)CN2C1=O",
    "pIC50": 8.74
  },
  {
    "Compound": "O=C(N[C@H]1CCCCC/C=C\\[C@@H]2C[C@@]2(C(=O)NS(=O)(=O)C2CC2)NC(=O)[C@@H]2C[C@@H](OC(=O)N3Cc4ccccc4C3)CN2C1=O)O[C@H]1CCOC1",
    "pIC50": 8.66
  },
  {
    "Compound": "CC(=O)O[C@@H]1C[C@H]2C(=O)N[C@]3(C(=O)NS(=O)(=O)C4CC4)C[C@H]3/C=C\\CCCCC[C@H](NC(=O)OC(C)(C)C)C(=O)N2C1",
    "pIC50": 7.92
  },
  {
    "Compound": "CN(C)c1ccc(S(=O)(=O)NC(=O)[C@@]23C[C@H]2/C=C\\CCCCC[C@H](NC(=O)OC(C)(C)C)C(=O)N2C[C@H](OC(=O)N4Cc5ccccc5C4)C[C@H]2C(=O)N3)cc1",
    "pIC50": 7.96
  },
  {
    "Compound": "CC(C)(C)OC(=O)N[C@H]1CCCCC/C=C\\[C@@H]2C[C@@]2(C(=O)NS(=O)(=O)C2CC2)NC(=O)[C@@H]2C[C@@H](OC(=O)N3CCc4ccccc4C3)CN2C1=O",
    "pIC50": 8.66
  },
  {
    "Compound": "CC(C)(C)OC(=O)N[C@H]1CCCCC/C=C\\[C@@H]2C[C@@]2(C(=O)NS(=O)(=O)C2CC2)NC(=O)[C@@H]2C[C@@H](OC(=O)N3Cc4ccc(N)cc4C3)CN2C1=O",
    "pIC50": 8.82
  },
  {
    "Compound": "CC(C)(C)OC(=O)N[C@H]1CCCC(F)(F)C/C=C\\[C@@H]2C[C@@]2(C(=O)NS(=O)(=O)C2CC2)NC(=O)[C@@H]2C[C@@H](OC(=O)N3Cc4cccc(F)c4C3)CN2C1=O",
    "pIC50": 9.30
  },
  {
    "Compound": "C=C[C@@H]1C[C@]1(NC(=O)[C@@H]1C[C@@H](OC(=O)N2CCCCC2)CN1C(=O)[C@@H](NC(=O)[C@@H](NC(C)=O)C1CCCCC1)C(C)C)C(=O)O (Ac-[Chg]V[Hyp]([CO-Piperidide])[Ac3c(1R,2S-2-vinyl)]-OH)",
    "pIC50": 5.37
  },
  {
    "Compound": "CC(C)(C)OC(=O)N[C@H]1CCCCC/C=C\\[C@@H]2C[C@@]2(C(=O)NS(=O)(=O)C2CC2)NC(=O)[C@@H]2C[C@@H](OC(=O)N3Cc4cccc(C(F)(F)F)c4C3)CN2C1=O",
    "pIC50": 8.92
  },
  {
    "Compound": "CC(C)(C)OC(=O)N[C@H]1CCCCC/C=C\\[C@@H]2C[C@@]2(C(=O)NS(=O)(=O)C2CC2)NC(=O)[C@@H]2C[C@@H](OC(=O)N3CCc4c(F)ccc(F)c4C3)CN2C1=O",
    "pIC50": 8.92
  },
  {
    "Compound": "CC(C)(C)OC(=O)N[C@H]1CCCCC/C=C\\[C@@H]2C[C@@]2(C(=O)NS(=O)(=O)N2CCNCC2)NC(=O)[C@@H]2C[C@@H](OC(=O)N3Cc4ccccc4C3)CN2C1=O",
    "pIC50": 7.66
  },
  {
    "Compound": "CC(C)(C)OC(=O)N[C@H]1CCCCC/C=C\\[C@@H]2C[C@@]2(C(=O)NS(=O)(=O)C2CC2)NC(=O)[C@@H]2C[C@@H](NC(=O)c3nc4ccccc4s3)CN2C1=O",
    "pIC50": 8.46
  },
  {
    "Compound": "CC(C)(C)OC(=O)N[C@H]1CCCCC/C=C\\[C@@H]2C[C@@]2(C(=O)NS(=O)(=O)C2CC2)NC(=O)[C@@H]2C[C@@H](OC(=O)N3Cc4c(Cl)ccc(Cl)c4C3)CN2C1=O",
    "pIC50": 8.77
  },
  {
    "Compound": "CO[C@@H]1C[C@H]2C(=O)N[C@]3(C(=O)NS(=O)(=O)C4CC4)C[C@H]3/C=C\\CCCCC[C@H](NC(=O)OC(C)(C)C)C(=O)N2C1",
    "pIC50": 6.66
  },
  {
    "Compound": "CC(C)(C)OC(=O)N[C@H]1CCCCC/C=C\\[C@@H]2C[C@@]2(C(=O)NS(=O)(=O)C2CC2)NC(=O)[C@@H]2C[C@@H](NC(=O)c3sc4cccc(Cl)c4c3Cl)CN2C1=O",
    "pIC50": 8.85
  },
  {
    "Compound": "N[C@H]1CCCCC/C=C\\[C@@H]2C[C@@]2(C(=O)NS(=O)(=O)C2CC2)NC(=O)[C@@H]2C[C@@H](OC(=O)N3Cc4cccc(F)c4C3)CN2C1=O",
    "pIC50": 7.70
  }
]

// provenance: ChEMBL document CHEMBL3120136
